Test: yeast display, Sf9 membrane polyspecificity reagent, FACS + sequencing; frameworks hold sequencing errors
measuredEndpoint: polyreactivity (PSR sort gate)

1) QVQLVESGGGLDQAGGSLRLSSAASGFTFERYPMGWDRQAPGKEREMVAAIDWRGVNTYYADSVKGRFTISRHTAKTTVYLQMNSLKPEDTAVYYCNARAYGRYYWGQGTQVTVSS; high polyreactivity
2) QVQLVESGGGLVQAGGSLRLSCAASGSTFGYYTMGWYRQAPGKERELVAAISWSGGSTYYADSVKGRFTISRDNAKNTVYLQMNSLKPEDTAVYYCAALGYTYKYYSYYWGQGTQVTVSS; high polyreactivity
3) QVQLVESGGGLVQAGGSLRLSCAASGRISVYNMGWYRQAPGKERELVAAISNGGSTNYADSVKGRFTISRDNAKNTVYLQMNSLKPEDTAVYYCNRRVPYSFYSRGYYYWGQGTQVTVSS; high polyreactivity
4) QVQLVDSGGGLVQAGGSLRLSCAASGSTFGPYAMGWYRQAPGKERELVAAISGSGGTTYYADSVKGRFTMSRDNSKNTVYLQMNSLKPEDTAVYDCAAYPRWTYWGYVERYYWGQGTQVTVSS; high polyreactivity
